# TARGET_ENTITY: Adrenergic receptor alpha-2 (Rattus norvegicus, UniProt P22086+P19328+P22909)
# ASSAY_METHOD_TEXT: Binding affinity for Alpha-2 adrenergic receptor in rat cortex membranes using [3H]rauwolscine as radioligand
# Assay type: cell membranes
Note to self: Ki under 1 nM means Satisfied, ties and anything higher get Not satisfied.

> print(dat)
                                   compound  class.assignment
1  COc1ccccc1N1CCN(CCCCCCCn2ncc(Cl)c(N3CCN(CC4COc5ccccc5O4)CC3)c2=O)CC1 (stereo not given)     Not satisfied
2  COc1ccccc1N1CCN(CCCCCCCn2ncc(N3CCN(CC4COc5ccccc5O4)CC3)c(Cl)c2=O)CC1 (stereo not given)         Satisfied
3  CCOc1ccccc1N1CCN(CCCCCCCn2ncc(Cl)c(N3CCN(C(=O)c4ccco4)CC3)c2=O)CC1         Satisfied
4  CC(C)Oc1ccccc1N1CCN(CCCCCCCn2ncc(N3CCN(CC4COc5ccccc5O4)CC3)c(Cl)c2=O)CC1 (stereo not given)     Not satisfied
5  CCOc1ccccc1N1CCN(CCCCCCCn2ncc(N3CCN(CC4COc5ccccc5O4)CC3)c(Cl)c2=O)CC1 (stereo not given)     Not satisfied

====

Below: a set of entries, each annotated with reported Ki.
# TARGET_ENTITY: Adrenergic receptor alpha-2 (Rattus norvegicus, UniProt P22086+P19328+P22909)
# Sequence (P22086 whole entry): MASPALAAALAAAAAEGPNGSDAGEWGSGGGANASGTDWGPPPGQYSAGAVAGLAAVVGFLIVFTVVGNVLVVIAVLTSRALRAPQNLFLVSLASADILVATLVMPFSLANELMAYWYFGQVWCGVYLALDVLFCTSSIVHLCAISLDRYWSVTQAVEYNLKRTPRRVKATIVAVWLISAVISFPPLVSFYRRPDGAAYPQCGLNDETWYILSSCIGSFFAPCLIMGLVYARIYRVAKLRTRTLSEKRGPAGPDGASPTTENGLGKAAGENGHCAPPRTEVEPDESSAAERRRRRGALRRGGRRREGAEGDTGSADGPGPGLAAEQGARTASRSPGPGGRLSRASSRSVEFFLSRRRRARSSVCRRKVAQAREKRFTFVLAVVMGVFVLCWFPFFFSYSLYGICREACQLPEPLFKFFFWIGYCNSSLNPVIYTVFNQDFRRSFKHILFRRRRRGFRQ
# Sequence (P19328 whole entry): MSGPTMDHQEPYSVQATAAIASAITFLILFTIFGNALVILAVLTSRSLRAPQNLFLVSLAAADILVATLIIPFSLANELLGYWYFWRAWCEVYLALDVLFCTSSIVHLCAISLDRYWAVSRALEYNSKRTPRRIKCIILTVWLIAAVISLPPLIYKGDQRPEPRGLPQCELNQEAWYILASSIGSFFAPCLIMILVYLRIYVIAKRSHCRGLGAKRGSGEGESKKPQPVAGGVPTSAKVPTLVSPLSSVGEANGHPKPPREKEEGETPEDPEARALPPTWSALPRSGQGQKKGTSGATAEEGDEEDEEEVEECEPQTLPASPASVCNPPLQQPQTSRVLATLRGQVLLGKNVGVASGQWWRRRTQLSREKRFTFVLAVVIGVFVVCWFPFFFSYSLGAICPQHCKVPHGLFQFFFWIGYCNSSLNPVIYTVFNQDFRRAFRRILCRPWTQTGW
# Sequence (P22909 whole entry): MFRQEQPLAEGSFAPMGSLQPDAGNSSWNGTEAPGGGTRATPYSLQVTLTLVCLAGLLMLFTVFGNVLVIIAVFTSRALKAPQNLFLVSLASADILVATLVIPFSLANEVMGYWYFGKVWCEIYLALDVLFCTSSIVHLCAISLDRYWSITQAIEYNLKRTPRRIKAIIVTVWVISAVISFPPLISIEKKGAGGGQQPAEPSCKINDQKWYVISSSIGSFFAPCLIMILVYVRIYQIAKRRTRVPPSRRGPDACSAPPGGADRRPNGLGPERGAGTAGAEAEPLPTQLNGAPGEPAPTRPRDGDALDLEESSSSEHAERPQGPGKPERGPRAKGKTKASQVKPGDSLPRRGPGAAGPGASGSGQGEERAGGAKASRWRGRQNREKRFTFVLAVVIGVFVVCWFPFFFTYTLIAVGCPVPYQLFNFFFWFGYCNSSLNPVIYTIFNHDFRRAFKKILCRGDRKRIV
# ASSAY_METHOD_TEXT: Binding affinity for Alpha-2 adrenergic receptor in rat cortex membranes using [3H]rauwolscine as radioligand
# Format: cell membranes
READOUT_KIND: Ki (nM)

> print(dat)
                                   compound  experimental.result
1  COc1ccccc1N1CCN(CCCCCCCn2ncc(Cl)c(N3CCN(C(=O)c4ccco4)CC3)c2=O)CC1                 1.23
2  CC(C)Oc1ccccc1N1CCN(CCCCCCCn2ncc(Cl)c(N3CCN(CC4COc5ccccc5O4)CC3)c2=O)CC1 (centres undefined)                 13.4
3  CCOc1ccccc1N1CCN(CCCCCCCn2ncc(Cl)c(N3CCN(CC4COc5ccccc5O4)CC3)c2=O)CC1 (centres undefined)                  2.4
4  CC(C)Oc1ccccc1N1CCN(CCCCCCCn2ncc(Cl)c(N3CCN(C(=O)c4ccco4)CC3)c2=O)CC1                 0.66
